test system: SK-MEL-5 melanoma; assay: NCI-60 one-dose screen, 48 h (100 = growth as untreated, 0 = no growth, -100 = all killed); details: 10 µM
About 83,000 compounds went through this panel and 20% of them were active in at least one assay; those are over-represented in the sample as a whole.
Listed next: entries and their corresponding growth.
Hi! Could you send only the number? It should be in %, unit omitted.

Use these answered entries as a reference point.
molecule: O=C1NC(=O)C2C(=O)NC(=O)C1C21CCc2ccccc21 (stereo not drawn)
targetOrTestSystem: SK-MEL-5 melanoma
unitSymbol: %
recordedNumber: 96.3
//
molecule: CC(=Nc1ccccc1)C1=C(O)C(Cc2cccc(F)c2)NC1=O (stereo not drawn)
targetOrTestSystem: SK-MEL-5 melanoma
unitSymbol: %
recordedNumber: 1.57
//
molecule: C[C@]12CC[C@@H]3c4ccc(OCC(=O)O)cc4CC[C@H]3[C@@H]1CCC2=O
targetOrTestSystem: SK-MEL-5 melanoma
unitSymbol: %
recordedNumber: 99.9
//
molecule: c1ccc(/C(=N\N=C(/c2ccccc2)c2cccs2)c2cccs2)cc1
targetOrTestSystem: SK-MEL-5 melanoma
unitSymbol: %
recordedNumber: 101
//
molecule: Cc1ccccc1N=C(c1ccccc1)C1C(=O)c2ccccc2C1=O
targetOrTestSystem: SK-MEL-5 melanoma
unitSymbol: %
recordedNumber: -0.209

For the molecule shown here, O=C(O)C(O)c1ccccc1 (stereo not drawn) , give the reported growth. 101

For the molecule shown here, C=C[Si](OC(C)=O)(OC(C)=O)OC(C)=O , give the reported growth. 104

---

tested on: MDA-MB-435 melanoma; test: NCI-60 one-dose screen, 48 h; conditions: 10 µM
The panel holds about 83,000 compounds, 20% with a hit somewhere; the sample as a whole holds those more often. Active and inactive are the calls of the source. The calls were made as follows: active = growth percent below 10; inactive = the rest.
Pick one: Y for active, N for inactive

// known answers, use as guide
compound: CC(C)COC(=O)COC(=O)OCCOCCOC(=O)OCC(=O)OCC(C)C
cat: N
--
compound: CC(=O)c1sc2c(c1OC(=O)c1ccc(Cl)cc1Cl)c(=O)n(-c1ccccc1)c(=S)n2-c1ccccc1
cat: Y
--
compound: CC1(C(N)=O)CCC(C(=O)O)C1(C)C (stereo not drawn)
cat: N

Look up the recorded call for CN(C)CCN(C)CC(C)(C)C(=O)/C=C/c1ccc(Cl)cc1 in this test. Y

Look up the recorded call for Cc1cc(O)ccc1O in this test. N

Look up the recorded call for CCCC1(c2ccccc2)NC(=O)NC1=O (stereo not drawn) in this test. N

Look up the recorded call for Cc1cc(=O)n(-c2ccc(F)cc2)[nH]1 in this test. N

Look up the recorded call for CC(=O)OCC1=CC2OC(=O)C3=COC(OC4OC(CO)C(O)C(O)C4O)C1C32 (stereo not drawn) in this test. N

Look up the recorded call for O=C1OC(c2ccc(F)cc2)CC1CN1CCOCC1 (stereo not drawn) in this test. N

Look up the recorded call for O=C(O)/C=C/C(=O)NCc1ccccc1 in this test. N

Look up the recorded call for CN1C(=O)CN2CCc3ccccc3C2c2cc(Cl)ccc21 (stereo not drawn) in this test. N

Look up the recorded call for CC(C)=CC(=O)OC(=O)C=C(C)C in this test. N

Look up the recorded call for c1ncc2[nH]cnc2n1 in this test. N

---

Test system: MDA-MB-231 breast
Experiment: NCI-60 one-dose screen, 48 h (100 = growth as untreated, 0 = no growth, -100 = all killed)
Conditions: 10 µM
Method: Cells are grown in 96 well plates and exposed to the test compound for 48 hours. Compounds are tested at a single concentration, which is 10^-5 M for most compounds. The reported endpoint is percent growth (GI% or GIPRCNT), where numbers from 0 - 100% represent growth inhibition, and numbers from -100% - 0 represent cell death. For example, a value of 40 represents 60% growth inhibition. A value of 0 means no net growth occurred over the course of the experiment. […]
Compounds without any hit were thinned out: in the full panel of roughly 83,000, 20% have a hit.
Listed next: entries and their corresponding growth.
Hi! Could you send only the number? It should be in %, unit omitted.

Use these answered entries as a reference point.
compound: CC(=O)c1ccc(N=C(C#N)C2=C(O)c3ccccc3C2=O)cc1
readoutLabel: growth
unitSymbol: %
recordedNumber: 106

compound: O=C(CCNNC(=O)c1ccncc1)NCc1ccccc1
readoutLabel: growth
unitSymbol: %
recordedNumber: 60.9

compound: COC(=O)C(O)c1ccccc1 (stereo not drawn)
readoutLabel: growth
unitSymbol: %
recordedNumber: 91

compound: Cc1cc(=O)[nH]c(NN=C2CCCC2)n1
readoutLabel: growth
unitSymbol: %
recordedNumber: 102

For the compound shown here, O=C1C=C(Nc2ccc([N+](=O)[O-])cc2)c2ccccc2C1=O , give the reported growth. 22.5

For the compound shown here, OCCN1CCOCC1 , give the reported growth. 113

For the compound shown here, O=C(O)C(Cc1ccccc1)C(=O)O , give the reported growth. 104

For the compound shown here, CCc1nc(N)nc(N)c1-c1ccc(Cl)cc1 , give the reported growth. 69.9

For the compound shown here, N#CC1(Nc2ccc3c4c(cccc24)CC3)CCCCC1 , give the reported growth. 99.8

For the compound shown here, CCCCCCCCCCC(C)Br (stereo not drawn) , give the reported growth. 113

For the compound shown here, CC(=O)OCC(=O)[C@@]1(O)CC[C@H]2[C@@H]3CC[C@@H]4C[C@H](O)CC[C@]4(C)[C@H]3C(=O)C[C@@]21C , give the reported growth. 103

For the compound shown here, CC(C)C1CCCCC1O (stereo not drawn) , give the reported growth. 99.4

For the compound shown here, COC(=O)c1ccccc1N(C)C , give the reported growth. 112

---

Listed next: entries and their corresponding growth.
system: M14 melanoma; experiment: NCI-60 one-dose screen, 48 h (100 = growth as untreated, 0 = no growth, -100 = all killed); details: 10 µM
About 83,000 compounds went through this panel and 20% of them were active in at least one assay; those are over-represented in the sample as a whole.
Hi! Could you send only the number? It should be in %, unit omitted.

Use these answered entries as a reference point.
compound: COc1ccc(OC)c(/C=C2\CCc3ccccc3C2=O)c1
recordedNumber: 15
//
compound: CC1OC(Oc2c(-c3ccc(O)c(O)c3)oc3cc(O)cc(O)c3c2=O)C(O)C(O)C1O (stereo unspecified)
recordedNumber: 106
//
compound: O=c1[nH]cc(Cl)cc1O
recordedNumber: 86.6
//
compound: N#CC1(Nc2ccc3c4c(cccc24)CC3)CCCCC1
recordedNumber: 113
//
compound: S=c1nn[nH]c2ccccc12
recordedNumber: 102

Moving on to another compound below.
For the compound shown here, CC(=O)c1ccc(N=C(C#N)C2=C(O)c3ccccc3C2=O)cc1 , give the reported growth. 105

---

Listed next: entries and their corresponding growth.
system: BT-549 breast; assay: NCI-60 one-dose screen, 48 h (100 = growth as untreated, 0 = no growth, -100 = all killed); conditions: 10 µM
The panel holds about 83,000 compounds, 20% with a hit somewhere; the sample as a whole holds those more often.
Hi! Could you send only the number? It should be in %, unit omitted.

Use these answered entries as a reference point.
compound: COc1ccc(C(O)c2ccccc2)cc1 (stereo not drawn)
readoutLabel: growth
unitSymbol: %
recordedNumber: 121

compound: Cc1ccc(C)n1-c1ccsc1C(=O)NNC(=O)CCl
readoutLabel: growth
unitSymbol: %
recordedNumber: 70.1

For the compound shown here, CC(=O)c1cc2c(cc1F)C(C)(C)CCC2(C)C , give the reported growth. 101

---

Listed next: entries and their corresponding growth.
tested on: SNB-75 CNS; test: NCI-60 one-dose screen, 48 h (100 = growth as untreated, 0 = no growth, -100 = all killed); conditions: 10 µM
The panel holds about 83,000 compounds, 20% with a hit somewhere; the sample as a whole holds those more often.
Hi! Could you send only the number? It should be in %, unit omitted.

Use these answered entries as a reference point.
compound: CCOc1ccccc1/C=N/Nc1nc2ccccc2o1
unitSymbol: %
recordedNumber: 83.9

compound: CCC/C=C(\C)C(C)(C#N)C(=O)OCC (stereo not given)
unitSymbol: %
recordedNumber: 87.8

compound: C=CCNc1ccccc1
unitSymbol: %
recordedNumber: 82.7

compound: Brc1cnc2ccccc2c1
unitSymbol: %
recordedNumber: 106

compound: Cc1cc2nc(CO)[nH]c2cc1C
unitSymbol: %
recordedNumber: 90.9

compound: S=C1CCCCCN1
unitSymbol: %
recordedNumber: 89.1

For the compound shown here, CCCCCCCCCCCCCCCCC1CC(=O)OC1=O (stereo not given) , give the reported growth. 101

For the compound shown here, Nc1ccc(NC(=O)c2cccc(N)c2)cc1 , give the reported growth. 91.3

For the compound shown here, Cc1cc(N)c(S(=O)(=O)O)c(N)c1 , give the reported growth. 98.8

For the compound shown here, O=[N+]([O-])c1ccccc1N=Nc1ccc(O)cc1O , give the reported growth. 91.5

For the compound shown here, CCCCC1(CC)COC(CCC)OC1 (stereo not given) , give the reported growth. 99.1

For the compound shown here, COc1cc(CCN=Cc2ccccc2O)c([N+](=O)[O-])cc1OC , give the reported growth. 96.6

For the compound shown here, Cc1cc2nc(CC(=O)c3ccccc3)c(=O)[nH]c2cc1C , give the reported growth. 117

For the compound shown here, N=c1c(C(=O)OCc2ccccc2)ncc(CCl)n1O , give the reported growth. 83.6

For the compound shown here, CC(C)CCOC(=O)c1ccccc1 , give the reported growth. 95.6

For the compound shown here, CCOC(=O)C(C#N)Cc1ccccc1 (stereo not given) , give the reported growth. 99.1

For the compound shown here, CCCCCCCCCCC1CO1 (stereo not given) , give the reported growth. 94
